The measurements presented in this section are drawn from PubChem BioAssay (NCI).

- Test system: MDA-MB-435 melanoma
- testDescription: NCI-60 one-dose screen, 48 h (100 = growth as untreated, 0 = no growth, -100 = all killed)
- conditionSet: 10 µM unless noted
Compounds without any hit were thinned out: in the full panel of roughly 83,000, 20% have a hit.
observable: growth (%)

compound	readoutUnit	valueReported
COC(=O)C(Cc1ccccc1)NC(=O)NC(=O)NC(=O)CI (stereo unspecified)	%	24.4
CS(=O)(=O)Nc1cc(-c2ccc3ncnc(Nc4cccc(Cl)c4F)c3c2)cnc1Cl	%	46.2
COc1ccc(/C=C(\C#N)n2nnc3c(F)cccc32)cc1	%	-78.4
c1cc2nc(-c3cn[nH]c3)c3c(c2cc1-c1cn[nH]c1)C1CCC3C1 (stereo unspecified)	%	75.3
Cn1cc(-c2cc3ncnc(Nc4ccc(CC(=O)Nc5cc(C(C)(C)C)nn5C)cc4)c3s2)cn1	%	58.4
CCc1ccc(Oc2c(-c3ccc(OCc4ccc(Cl)cc4)cc3O)nn(C)c2C(F)(F)F)cc1	%	1.36
Cc1ccc(C2CC(c3ccc(Nc4ccnc5cc(Cl)ccc45)cc3)=NN2C=O)cc1 (stereo unspecified)	%	16.3
Cc1ccc(S(=O)(=O)N/N=C/C2(c3ccccc3)CC2)cc1	%	104
CCN1C(=O)N(CC)C2Nn3c(s/c(=C4\C(=O)N(CC(C)C)c5ccccc54)c3=O)=NC21 (stereo unspecified)	%	-45.9
COc1ccc(CN2c3ccccc3CCc3ccccc32)cc1F	%	-49.4
NCCCNc1nc2ccccc2c2c(=O)c3cccc(F)c3sc12	%	16.5
Cc1cc2[nH]c(=O)c3c4ncccc4cn3c2cc1C	%	11.1
O=C(Nc1ccc(Cl)cc1F)c1cc(Cl)ccc1O	%	-11.4
COc1ccc2[nH]c(-c3ccccc3)c(/C=C(\C#N)S(=O)(=O)c3ccccc3)c2c1	%	2.24
Cc1cc(N2CCCC2)nc(N(CCCNc2ccnc3cc(Cl)ccc23)Cc2ccccn2)n1	%	19.1
COc1ccc(/C=C/c2c(C(=O)/C=C/c3ccc(C(F)(F)F)cc3)c(C)nc3ccccc23)cc1	%	-56.5
COc1cc(/C=N/NC(=O)c2ccc(C)nc2)cc(OC)c1OC	%	109
Cc1ccc(-c2nc(N3CCN(CC(=O)Nc4ccc(Cl)cc4)CC3)c3ccccc3n2)cc1	%	96.4
COc1ccc(C(=O)N=Nc2c(O)n(C)c3ccccc23)cc1	%	103
CC[C@H](C)C(=O)O[C@H]1CCC=C2C=C[C@H](C)[C@H](CC[C@@H]3CC=CC(=O)O3)[C@H]21	%	86
O=C(/C=C/c1sc(Cl)nc1Cl)c1ccc(F)cc1	%	101

====

- System: NCI/ADR-RES ovarian
- testDescription: NCI-60 one-dose screen, 48 h (100 = growth as untreated, 0 = no growth, -100 = all killed)
- conditionSet: 10 µM unless noted
- Experimental: Growth inhibition of the NCI/ADR-RES human […] tumor cell line is measured as a screen for anti-cancer activity. Cells are grown in 96 well plates and exposed to the test compound for 48 hours. Compounds are tested at a single concentration, which is 10^-5 M for most compounds. The reported endpoint is percent growth (GI% or GIPRCNT), where numbers from 0 - 100% represent growth inhibition, and numbers from -100% - 0 represent cell death. For example, a value of 40 represents 60% growth inhibition. […]
About 83,000 compounds went through this panel and 20% of them were active in at least one assay; those are over-represented in the sample as a whole. Activity calls are given as the source filed them. The calls were made as follows: active = growth percent below 10; inactive = the rest.
# growth listing for each entry below
observable: growth

compound	valueReported
CC1Cc2ccccc2N1NC(=O)c1ccc(Cl)c(S(N)(=O)=O)c1 (stereo not given)	101% (inactive)
CCc1nnc(NC(=O)c2nnn(-c3ccccc3)c2-c2ccco2)s1	100% (inactive)
COc1cc(CCC[P+](c2ccccc2)(c2ccccc2)c2ccccc2)c(OC)c2c1OCO2	98.5% (inactive)
Cc1cc(-c2cc(C)c(N)cc2C)c(C)cc1N	100% (inactive)
NS(=O)(=O)c1ccc(-n2nc(C(=O)N/N=C\c3ccc(F)cc3)cc2-c2ccc(Br)cc2)cc1	67.8% (inactive)
CCc1cccc2c3c(sc12)C(c1ccc(F)cc1)C(C#N)=C(N)O3 (stereo not given)	14% (inactive)
CCCSc1nc2ccc(C)cc2cc1/C=[N+](\[O-])c1ccccc1	7.89% (active)
COc1ccc(C(=S)N2CCN(c3cccc(C)c3)CC2)cc1OC	5.68% (active)
COc1ccc([C@H]2c3cc(OC)c(OC)cc3C=C(C=O)C2CO)cc1OC (stereo not given in full)	70.8% (inactive)
C=C1C(=O)O[C@H]2[C@H]1CC/C(COC(=O)C(C)c1ccc(CC(C)C)cc1)=C\CC[C@@]1(C)O[C@@H]21 (stereo not given in full)	14.6% (inactive)
